A collection of binders and their measured kon
- TARGET_DESC: T1, cynomolgus tissue factor (cynomolgus TF, Sino Bio #90885-C08H) (cynomolgus monkey, UniProt P13726 33-251 (human entry))
- T1 construct: bought recombinant antigen; also called cyno TF
- T1 chain: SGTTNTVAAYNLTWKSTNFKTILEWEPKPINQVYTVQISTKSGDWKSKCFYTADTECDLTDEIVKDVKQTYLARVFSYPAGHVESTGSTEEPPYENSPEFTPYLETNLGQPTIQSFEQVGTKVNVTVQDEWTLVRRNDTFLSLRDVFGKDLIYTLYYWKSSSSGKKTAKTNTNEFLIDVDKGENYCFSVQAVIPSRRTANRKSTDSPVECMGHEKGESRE
- EXPERIMENTAL_PROTOCOL: Biacore SPR kinetics, antibody captured on anti-Fc, 1:1 Langmuir fit
The answer is to be given in M⁻¹ s⁻¹; state only the numeric part.

Study these solved cases before continuing.
Please look up its kon: mAb 49: aTF_2842-G04_HC2_Y180/F404TAG; aTF_2842-G04_LC2 (antibody, IgG1, V domains shown, non-natural amino acid (pAMF) at TAG sites Y180 and F404 (EU), * in the sequence, unconjugated full-length IgG1/kappa; also called 2842-G04 HC2/LC2) VH: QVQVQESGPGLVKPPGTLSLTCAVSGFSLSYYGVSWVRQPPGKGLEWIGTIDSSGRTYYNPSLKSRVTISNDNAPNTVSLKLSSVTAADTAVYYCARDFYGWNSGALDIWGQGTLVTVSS VL: DLQLTQSPSTLSASVGDRVTITCRASQSVYSNKYLSWYQQKPGKAPKLLIYKASTLASGVPSRFSGSGSGTEFTLTISSLQPDDFATYYCAAAYSDDSDTAFGQGTKVEIKR
80800

How about this binder: mAb 37: aTF_2842-B01_Hc3_Y180/F404TAG pAzMeF; aTF_2842-B01_Lc2 (antibody, IgG1, V domains shown, pAzMeF at Y180 and F404 (EU), * in the sequence, unconjugated full-length IgG1/kappa, cell-free expressed; also called 2842-B01 HC3/LC2; 2842-B01-HC3/LC2 Y180/F404) VH: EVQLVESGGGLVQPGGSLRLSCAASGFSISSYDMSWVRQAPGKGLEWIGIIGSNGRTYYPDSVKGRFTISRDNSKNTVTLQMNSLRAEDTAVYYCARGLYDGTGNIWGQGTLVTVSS VL: ELVMTQSPPTLSLSPGERVTLSCRASQSVYGNNWLSWYQQKPGQAPRLLIYGASKLATSIPARFSGSGSGTQFTLTISSLQPEDFAVYYCQGTYYSGDWYFAFGQGTKVEIKR
72400

How about this binder: mAb 48: aTF_2842-B01_HC1_Y180/F404TAG; aTF_2842-B01_LC3 (antibody, IgG1, V domains shown, non-natural amino acid (pAMF) at TAG sites Y180 and F404 (EU), * in the sequence, unconjugated full-length IgG1/kappa; also called 2842-B01 HC1/LC3) VH: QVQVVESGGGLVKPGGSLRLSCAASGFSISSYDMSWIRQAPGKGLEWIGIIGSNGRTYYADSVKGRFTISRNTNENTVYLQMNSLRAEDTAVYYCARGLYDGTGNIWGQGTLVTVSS VL: DIQMTQSPSSLSASVGDRVTITCQASQSVYGNNWLSWYQQKPGKAPKLLIYGASKLASGVPSRFSGSGSGTDFTLTISSLQPEDFATYYCQGTYYSGDWYFAFGGGTKVEIKR
121000

Now look at this one.
Please look up its kon: mAb 47: aTF_2842-B01_HC3_Y180/F404TAG; aTF_2842-B01_LC1 (antibody, IgG1, V domains shown, non-natural amino acid (pAMF) at TAG sites Y180 and F404 (EU), * in the sequence, unconjugated full-length IgG1/kappa; also called 2842-B01 HC3/LC1) VH: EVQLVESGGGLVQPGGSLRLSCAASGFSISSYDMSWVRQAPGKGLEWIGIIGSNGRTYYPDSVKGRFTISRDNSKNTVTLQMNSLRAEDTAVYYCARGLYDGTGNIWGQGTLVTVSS VL: DLQMTQSPSSLSASVGDRVTITCRASQSVYGNNWLSWYQQKPGKAPKLLIYGASKLASGVPSRFSGSGSGTQFTLTISSLQPEDFATYYCQGTYYSGDWYFAFGQGTKVEIKR
82700
